Measured values drawn from BigSolDB 2.1 for this set.

conditions: in acetone, 288.15 K

- chem smiles: "CC[C@H](C)[C@H]1O[C@]2(C=C[C@@H]1C)C[C@@H]1C[C@@H](C/C=C(\\C)[C@@H](O[C@H]3C[C@H](OC)[C@@H](O[C@H]4C[C@H](OC)[C@@H](O)[C@H](C)O4)[C@H](C)O3)[C@@H](C)/C=C/C=C3\\CO[C@@H]4[C@H](O)C(C)=C[C@@H](C(=O)O1)[C@]34O)O2"
  solubility (mole fraction): 0.0104

---

conditions: in isopropanol, 288.15 K
metric: solubility (mole fraction)

- chem smiles: "CC[C@H](C)[C@H]1O[C@]2(C=C[C@@H]1C)C[C@@H]1C[C@@H](C/C=C(\\C)[C@@H](O[C@H]3C[C@H](OC)[C@@H](O[C@H]4C[C@H](OC)[C@@H](O)[C@H](C)O4)[C@H](C)O3)[C@@H](C)/C=C/C=C3\\CO[C@@H]4[C@H](O)C(C)=C[C@@H](C(=O)O1)[C@]34O)O2"
  val: 0.00589
